Biological target: T1, HLA-A0201 on T2 cells (human)
T1 construct: MHC class I molecule on T2 cells; also called HLA-A0201 molecule; HLA-A2
Assay: T2 cell HLA-A0201 assay, flow cytometry with FITC anti-HLA-A0201 mAb, peptide 100 µM
READOUT LABEL: FI (fluorescence index)

[[record]]
binder = "TLISSLMPL [variant peptide TLISSLMPL]"
endpoint_value = 2.08

[[record]]
binder = "TLISSLMPV [variant peptide TLISSLMPV]"
endpoint_value = 2.18

[[record]]
binder = "TLISSLMPI (Made by solid phase synthesis, purity >90%; also called peptide (a); tumor antigen peptide) [mutant peptide TLISSLMPI]"
endpoint_value = 2.04

[[record]]
binder = "TLISSLRPI (Made by solid phase synthesis, purified by reverse phase HPLC, purity >90%) [wild-type peptide TLISSLRPI]"
endpoint_value = 1.99

[[record]]
binder = "TMISSLMPL [variant peptide TMISSLMPL]"
endpoint_value = 2.4

[[record]]
binder = "TMISSLMPI [variant peptide TMISSLMPI]"
endpoint_value = 2.12

[[record]]
binder = "TMISSLMPV [variant peptide TMISSLMPV]"
endpoint_value = 2.46

